Assay: qHTS Assay for Identification of Small Molecule Antagonists for NFkB Signaling Pathway (AID 895)
Conditions: NFkB beta-lactamase reporter cells, FRET ratio 460/530, stimulated with 10 pM TNF alpha; series mostly up to 38.3 µM
Inconclusive results are not listed. The source made the active and inactive calls. Calls follow the shape of the dose curve; as a rule, active = well fitted inhibition curve with a large enough effect in the signal ratio, with a control signal flat (not every such curve was filed as active); inconclusive = small, poorly fitted or top-dose-only effect, or effect the other way, or a change in a side signal; inactive = flat fitted curve, though single readings scatter; the % refers to the signal ratio.
The reply should name one outcome from active, inactive

CCCCCN(CCCCC)C(=O)[C@H](CCC(=O)O)NC(=O)c1ccc(Cl)c(Cl)c1 :: inactive
Cc1cccc(C)c1OC[C@H](C)N :: active
N[C@H](C(=O)N[C@@H]1C(=O)N2C(C(=O)O)=C(Cl)CS[C@@H]12)c1ccccc1 :: inactive

Enquiry: Field: outcome | Entry: CN1[C@@H]2CC[C@H]1CC(OC(=O)[C@@H](O)c1ccccc1)C2 (stereo partly specified)
Return: inactive

Enquiry: Given C[C@H](NCCc1ccc(O)cc1)[C@@H](O)c1ccc(O)cc1 , state the outcome it received in this test.
Return: inactive

Enquiry: Please indicate how the test categorized C[C@@H](C(=O)O)c1cccc(C(=O)c2ccccc2)c1 .
Return: inactive

Enquiry: GET /call?item= CC1=C(C(=O)O)N2C(=O)[C@@H](NC(=O)[C@@H](N)c3ccccc3)[C@@H]2SC1 returns the recorded outcome of this test.
Return: inactive

Enquiry: // return assay outcome for CN1C(=O)CC[C@@H]1c1cccnc1
Return: inactive

Enquiry: Tell me the recorded outcome of this test for CO/N=C(\C(=O)N[C@@H]1C(=O)N2C(C(=O)O)=C(COC(C)=O)CS[C@@H]12)c1csc(N)n1 .
Return: inactive

Enquiry: Entry N[C@@H](CO)C(=O)NNCc1ccc(O)c(O)c1O : call = ?
Return: inactive

Enquiry: Call for entry CC[C@]1(C)CC(=O)NC1=O :
Return: inactive
